The reported measurements were obtained from patent US6337417B1.

Tested on: onamomi (heartleaf cocklebur, Xanthium strumarium)
PROTOCOL: Experiment 3 foliage treatment: onamomi
Assay type: in vivo
Design: key: 5: completely killed; 4: seriously injured; 3: considerably injured; 2: somewhat injured; 1: slightly injured; 0: not injured (normally grown)
PARTICULARS: 8 g/10a, 4 weeks after treatment
MEASURED METRIC: Herbicidal Effect onamomi

(Q) # query: Herbicidal Effect onamomi | item CCCOC(=O)C1=C(C(=O)N(C(C)=O)c2cc(SCC(=O)OC)c(Cl)cc2F)CCCC1 | system: onamomi (heartleaf cocklebur, Xanthium strumarium)
(A) 5

(Q) # query: Herbicidal Effect onamomi | item CCc1cnc(C2=NC(C)(C(C)C)C(=O)N2)c(C(=O)O)c1 (centres unmarked) [Comparative agentC, Pursuit, reference compound] | system: onamomi (heartleaf cocklebur, Xanthium strumarium)
(A) 5

(Q) # query: Herbicidal Effect onamomi | item CCCCOC(=O)C1=C(C(=O)N(C(=O)CC)c2cc(SCC(=O)OC)c(Cl)cc2F)CCCC1 | system: onamomi (heartleaf cocklebur, Xanthium strumarium)
(A) 4

(Q) # query: Herbicidal Effect onamomi | item CCOC(=O)C1=C(C(=O)N(C(=O)CC)c2cc(SCC(=O)OC)c(Cl)cc2F)CCCC1 | system: onamomi (heartleaf cocklebur, Xanthium strumarium)
(A) 5

(Q) # query: Herbicidal Effect onamomi | item COC(=O)C1=C(C(=O)N(C(C)=O)c2cc(SC(C)C(=O)OC)c(Cl)cc2F)CCCC1 (centres unmarked) | system: onamomi (heartleaf cocklebur, Xanthium strumarium)
(A) 4

----------
Tested on: mehishiba (henry crabgrass, Digitaria cliaris)
PROTOCOL: Experiment 2 foliage treatment: mehishiba
Type: in vivo
Parameters: key: 5: completely killed; 4: seriously injured; 3: considerably injured; 2: somewhat injured; 1: slightly injured; 0: not injured (normally grown)
PARTICULARS: 80 g/10a, 4 weeks after treatment
So I've got a bunch of compounds here, and I need their Herbicidal Effect mehishiba values.
Just the number, please.

(Q) # query: Herbicidal Effect mehishiba | item CCCCCOC(=O)C1=C(C(=O)N(C(=O)CC)c2cc(SCC(=O)OC)c(Cl)cc2F)CCCC1 | system: mehishiba (henry crabgrass, Digitaria cliaris)
(A) 1

(Q) # query: Herbicidal Effect mehishiba | item COC(=O)CSc1cc(N(C(=O)C2=C(C(=O)OC)CCCC2)C(=O)c2cccc(F)c2)c(F)cc1Cl | system: mehishiba (henry crabgrass, Digitaria cliaris)
(A) 1

(Q) # query: Herbicidal Effect mehishiba | item CCC(=O)Nc1ccc(Cl)c(Cl)c1 [Comparative agentB, Propanil, reference compound] | system: mehishiba (henry crabgrass, Digitaria cliaris)
(A) 1

(Q) # query: Herbicidal Effect mehishiba | item CCOC(=O)C1=C(C(=O)N(C(C)=O)c2cc(SCC(=O)OC)c(Cl)cc2F)CCCC1 | system: mehishiba (henry crabgrass, Digitaria cliaris)
(A) 1

(Q) # query: Herbicidal Effect mehishiba | item COC(=O)C1=C(C(=O)N(C(C)=O)c2cc(SC(C)C(=O)OC)c(Cl)cc2F)CCCC1 (stereo not shown) | system: mehishiba (henry crabgrass, Digitaria cliaris)
(A) 1

(Q) # query: Herbicidal Effect mehishiba | item CCCCOC(=O)C1=C(C(=O)N(C(C)=O)c2cc(SCC(=O)OCC)c(Cl)cc2F)CCCC1 | system: mehishiba (henry crabgrass, Digitaria cliaris)
(A) 1

(Q) # query: Herbicidal Effect mehishiba | item C#CCOC(=O)C1=C(C(=O)N(C(C)=O)c2cc(SCC(=O)OC)c(Cl)cc2F)CCCC1 | system: mehishiba (henry crabgrass, Digitaria cliaris)
(A) 1

----------
So I've got a bunch of compounds here, and I need their Injury of Paddy values.
Tested on: paddy rice
PROTOCOL: Experiment 1 flooded soil treatment: injury to paddy rice
Type: in vivo
Design: key: 5: completely killed; 4: seriously injured; 3: considerably injured; 2: somewhat injured; 1: slightly injured; 0: not injured (normally grown)
PARTICULARS: 12.5 g/10a, 4 weeks after treatment
Just the number, please.

(Q) Sample COC(=O)CSc1cc(N(C(=O)C2=C(C(=O)OC)CCCC2)C(=O)c2cccc(F)c2)c(F)cc1Cl — what was its Injury of Paddy?
(A) 0

(Q) Sample CCC(=O)N(C(=O)C1=C(C(=O)OC)CCCC1)c1cc(SCC(=O)OC)c(Cl)cc1F — what was its Injury of Paddy?
(A) 0.5

(Q) Sample C#CCOC(=O)C1=C(C(=O)N(C(C)=O)c2cc(SCC(=O)OC)c(Cl)cc2F)CCCC1 — what was its Injury of Paddy?
(A) 0

(Q) Sample COC(=O)C1=C(C(=O)N(C(C)=O)c2cc(SC(C)C(=O)OC)c(Cl)cc2F)CCCC1 (stereo not shown) — what was its Injury of Paddy?
(A) 0.5

(Q) Sample CCCOC(=O)C1=C(C(=O)N(C(C)=O)c2cc(SCC(=O)OC)c(Cl)cc2F)CCCC1 — what was its Injury of Paddy?
(A) 0

(Q) Sample CCCCCOC(=O)C1=C(C(=O)N(C(=O)CC)c2cc(SCC(=O)OC)c(Cl)cc2F)CCCC1 — what was its Injury of Paddy?
(A) 0

(Q) Sample CCOC(=O)C1=C(C(=O)N(C(C)=O)c2cc(SCC(=O)OC)c(Cl)cc2F)CCCC1 — what was its Injury of Paddy?
(A) 0.5

----------
System: rice
PROTOCOL: Experiment 5 foliage treatment: rice
Assay type: in vivo
Design: key: 5: completely killed; 4: seriously injured; 3: considerably injured; 2: somewhat injured; 1: slightly injured; 0: not injured (normally grown)
PARTICULARS: 40 g/10a, foliage spray of wettable powder suspension, evaluated 4 weeks after treatment
MEASURED METRIC: Herbicidal Effect rice
Just the number, please.

(Q) # query: Herbicidal Effect rice | item C#CC(C)Oc1cc(N(C(=O)C2=C(C(=O)OC(C)C)CCCC2)C(=O)c2ccc(Cl)nc2)c(F)cc1Cl (stereo not shown) | system: rice
(A) 1

(Q) # query: Herbicidal Effect rice | item CCC(=O)Nc1ccc(Cl)c(Cl)c1 [Comparative agentB, Propanil, reference compound] | system: rice
(A) 0

(Q) # query: Herbicidal Effect rice | item C#CCOC(=O)C1=C(C(=O)N(C(=O)c2cccnc2)c2cc(OC(C)C#C)c(Cl)cc2F)CCCC1 (stereo not shown) | system: rice
(A) 3

(Q) # query: Herbicidal Effect rice | item C#CC(C)Oc1cc(N(C(=O)C2=C(C(=O)OCCOC)CCCC2)C(=O)c2cccnc2)c(Cl)cc1Cl (stereo not shown) | system: rice
(A) 1

----------
So I've got a bunch of compounds here, and I need their Injury of Paddy values.
System: paddy rice
PROTOCOL: Experiment 4 flooded soil treatment: injury to paddy rice
Format: in vivo
PARTICULARS: 3.13 g/10a, 4 weeks after treatment

(Q) Sample C#CC(C)Oc1cc(N(C(=O)C2=C(C(=O)OCCOCC)CCCC2)C(=O)c2cccnc2)c(F)cc1Cl (stereo not shown) — what was its Injury of Paddy?
(A) 0.5

(Q) Sample C#CC(C)Oc1cc(N(C(=O)C2=C(C(=O)OC(C)C)CCCC2)C(=O)c2ccc(Cl)nc2)c(F)cc1Cl (stereo not shown) — what was its Injury of Paddy?
(A) 0

(Q) Sample C#CCOC(=O)C1=C(C(=O)N(C(=O)c2cccnc2)c2cc(OC(C)C#C)c(Cl)cc2F)CCCC1 (stereo not shown) — what was its Injury of Paddy?
(A) 0

(Q) Sample COC(=O)CSc1cc(N(C(=O)C2=C(C(=O)OC)CCCC2)C(=O)c2cccnc2)c(F)cc1Cl — what was its Injury of Paddy?
(A) 0

(Q) Sample COC(=O)C1=C(C(=O)N(C(=O)c2cccnc2)c2cc(C(=O)OC)c(Cl)cc2F)CCCC1 — what was its Injury of Paddy?
(A) 0

(Q) Sample C#CC(C)Oc1cc(N(C(=O)C2=C(C(=O)OC3CCCC3)CCCC2)C(=O)c2cccnc2)c(F)cc1Cl (stereo not shown) — what was its Injury of Paddy?
(A) 0

(Q) Sample C#CC(C)Oc1cc(N(C(=O)C2=C(C(=O)OCCCC)CCCC2)C(=O)c2cccnc2)c(F)cc1Cl (stereo not shown) — what was its Injury of Paddy?
(A) 0.5

----------
System: paddy rice
PROTOCOL: Experiment 7 flooded soil treatment: injury to paddy rice
Format: in vivo
PARTICULARS: 12.5 g/10a, evaluated 4 weeks after treatment
So I've got a bunch of molecules here, and I need their Injury of Paddy values.
Just the number, please.

(Q) Sample C#CC(C)Oc1cc(N(C(=O)C2=C(C(=O)OCCCC)CCCC2)C(=O)c2ccsc2)c(F)cc1Cl (stereo not shown) — what was its Injury of Paddy?
(A) 0.5

(Q) Sample C#CC(C)Oc1cc(N(C(=O)C2=C(C(=O)OCCC)CCCC2)C(=O)c2cccs2)c(F)cc1Cl (stereo not shown) — what was its Injury of Paddy?
(A) 0

(Q) Sample C#CC(C)Oc1cc(N(C(=O)C2=C(C(=O)OC)CCCC2)C(=O)c2cccs2)c(F)cc1Cl (racemic) — what was its Injury of Paddy?
(A) 0.5

(Q) Sample C#CC(C)Oc1cc(N(C(=O)C2=C(C(=O)OC)CCCC2)C(=O)c2sccc2C)c(F)cc1Cl (stereo not shown) — what was its Injury of Paddy?
(A) 0
